- target-under-test: SIRT1 (Homo sapiens, UniProt Q96EB6)
- Sequence (Q96EB6 whole entry): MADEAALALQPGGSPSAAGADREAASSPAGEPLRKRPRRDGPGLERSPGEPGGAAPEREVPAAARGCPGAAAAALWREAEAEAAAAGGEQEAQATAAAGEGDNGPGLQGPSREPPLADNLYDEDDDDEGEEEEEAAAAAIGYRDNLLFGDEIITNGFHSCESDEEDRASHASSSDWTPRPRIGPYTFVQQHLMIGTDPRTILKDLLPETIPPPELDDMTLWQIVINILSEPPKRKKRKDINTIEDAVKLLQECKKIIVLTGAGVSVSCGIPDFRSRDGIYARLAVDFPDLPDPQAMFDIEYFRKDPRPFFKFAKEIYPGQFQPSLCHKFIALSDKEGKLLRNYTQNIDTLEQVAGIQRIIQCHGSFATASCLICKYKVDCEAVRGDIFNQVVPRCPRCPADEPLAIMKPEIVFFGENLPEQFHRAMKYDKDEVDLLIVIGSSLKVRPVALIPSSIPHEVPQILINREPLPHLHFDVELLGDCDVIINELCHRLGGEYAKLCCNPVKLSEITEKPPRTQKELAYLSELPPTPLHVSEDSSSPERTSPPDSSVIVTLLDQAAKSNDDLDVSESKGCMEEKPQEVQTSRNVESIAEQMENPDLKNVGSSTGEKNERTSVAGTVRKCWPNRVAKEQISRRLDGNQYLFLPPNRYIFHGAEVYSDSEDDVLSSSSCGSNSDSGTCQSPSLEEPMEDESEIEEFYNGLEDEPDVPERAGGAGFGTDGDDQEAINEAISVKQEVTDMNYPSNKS
- assay-procedure: Fluorescence polarization or mass spectrometry based assay to identify modulators of SIRT1 activity (p53-based peptide deacetylation);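 further: recombinant His-tagged human SIRT1 deacetylating p53-derived acetylated peptide, detected by fluorescence polarization after trypsin cleavage, signal inversely tracking deacetylase activity, compared against activity without test compound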
- applied-conditions: activation of SIRT1, Table 4; read-out: ED50 (the source's name)
Quick reference for EC50 among some compounds
parameter: EC50

[[record]]
structure = "Cc1ccc2nc(-c3ccccc3)cc(C(=O)NCCCN3CCN(C)CC3)c2c1"
target_under_test = "SIRT1 (Homo sapiens, UniProt Q96EB6)"
parameter = "EC50"
observed_result = "> 150 µM"

[[record]]
structure = "Cc1ccc2nc(-c3cccs3)cc(C(=O)NCCN3CCCCC3)c2c1"
target_under_test = "SIRT1 (Homo sapiens, UniProt Q96EB6)"
parameter = "EC50"
observed_result = "> 150 µM"

[[record]]
structure = "Cc1ccc2nc(-c3ccco3)cc(C(=O)NCCCN3CCOCC3)c2c1"
target_under_test = "SIRT1 (Homo sapiens, UniProt Q96EB6)"
parameter = "EC50"
observed_result = "> 150 µM"

[[record]]
structure = "O=C(NCc1ccncc1)c1cc(-c2ccsc2)nc2ccccc12"
target_under_test = "SIRT1 (Homo sapiens, UniProt Q96EB6)"
parameter = "EC50"
observed_result = "< 50 µM"

[[record]]
structure = "O=C(Nc1ccccc1N1CCOCC1)c1cc(-c2ccco2)nc2ccccc12"
target_under_test = "SIRT1 (Homo sapiens, UniProt Q96EB6)"
parameter = "EC50"
observed_result = "< 50 µM"

[[record]]
structure = "Cc1ccc2nc(-c3ccco3)cc(C(=O)N(C)CCN(C)C)c2c1"
target_under_test = "SIRT1 (Homo sapiens, UniProt Q96EB6)"
parameter = "EC50"
observed_result = "> 150 µM"

[[record]]
structure = "COc1cc(NCc2c3ccccc3nc3ccccc23)cc(OC)c1OC"
target_under_test = "SIRT1 (Homo sapiens, UniProt Q96EB6)"
parameter = "EC50"
observed_result = "> 150 µM"

[[record]]
structure = "c1ccc(NNc2c3ccccc3nc3ccccc23)nc1"
target_under_test = "SIRT1 (Homo sapiens, UniProt Q96EB6)"
parameter = "EC50"
observed_result = "< 50 µM"

[[record]]
structure = "O=C(Nc1ccc(N2CCCCC2)cc1)c1c2ccccc2nc2ccccc12"
target_under_test = "SIRT1 (Homo sapiens, UniProt Q96EB6)"
parameter = "EC50"
observed_result = "> 150 µM"


----------
- target-under-test: SIRT1 (Homo sapiens)
- assay-procedure: Fluorescence polarization or mass spectrometry based assay to identify modulators of SIRT1 activity (p53-based peptide deacetylation)
- Assay type: biochemical
- applied-conditions: activation of SIRT1, Table 4; read-out: ED50 (the source's name)
Below, each of the molecules is paired with its reported EC50 value.
parameter: EC50

[[record]]
structure = "COc1cc(C(=O)NN(C)c2c3ccccc3nc3ccccc23)cc(OC)c1OC"
parameter = "EC50"
observed_result = "> 150 µM"

[[record]]
structure = "Cc1ccc(-c2cccc(NC(=O)c3c4ccccc4nc4ccccc34)c2)cc1C"
parameter = "EC50"
observed_result = "> 150 µM"

[[record]]
structure = "O=C(Nc1ccc2c(c1)OCO2)Nc1c2ccccc2nc2ccccc12"
parameter = "EC50"
observed_result = "> 150 µM"

[[record]]
structure = "COc1cc(NC(=O)c2cc(-c3ccccc3)nc3ccccc23)cc(OC)c1OC"
parameter = "EC50"
observed_result = "> 150 µM"

[[record]]
structure = "Cc1ccc2nc(-c3cccs3)cc(C(=O)N(C)CCN(C)C)c2c1"
parameter = "EC50"
observed_result = "> 150 µM"

[[record]]
structure = "COc1ccc(C(=O)NNc2cc(-c3ccccc3)nc3ccccc23)cc1OC"
parameter = "EC50"
observed_result = "< 50 µM"

[[record]]
structure = "Cc1ccc2nc(-c3cccs3)cc(C(=O)N3CCCCC3)c2c1"
parameter = "EC50"
observed_result = "> 150 µM"

[[record]]
structure = "O=C(NNc1cc(-c2ccccc2)nc2ccccc12)c1ccc(Cl)cc1"
parameter = "EC50"
observed_result = "< 50 µM"

[[record]]
structure = "COc1ccccc1N1CCN(C(=O)c2c3ccccc3nc3ccccc23)CC1"
parameter = "EC50"
observed_result = "> 150 µM"

[[record]]
structure = "COc1cc(C(=O)NNc2cc(-c3ccccc3)nc3ccccc23)cc(OC)c1OC"
parameter = "EC50"
observed_result = "> 150 µM"

[[record]]
structure = "COc1cc(C(=O)NNc2c3ccccc3nc3ccccc23)cc(OC)c1OC"
parameter = "EC50"
observed_result = "< 50 µM"

[[record]]
structure = "Cc1ccc2nc(-c3ccco3)cc(C(=O)NCCCCN3CCN(C)CC3)c2c1"
parameter = "EC50"
observed_result = "> 150 µM"

[[record]]
structure = "Cc1ccc2nc(-c3ccco3)cc(C(=O)NCCN3CCCCC3)c2c1"
parameter = "EC50"
observed_result = "> 150 µM"

[[record]]
structure = "Cc1ccc2nc(-c3cccs3)cc(C(=O)N3CCCN(C)CC3)c2c1"
parameter = "EC50"
observed_result = "> 150 µM"

[[record]]
structure = "CC(C)c1cc(NCc2c3ccccc3nc3ccccc23)n(-c2ccccc2)n1"
parameter = "EC50"
observed_result = "> 150 µM"

[[record]]
structure = "Cc1ccc2nc(-c3cccs3)ccc2c1C(=O)NCCCN1CCCCC1"
parameter = "EC50"
observed_result = "> 150 µM"

[[record]]
structure = "COc1cc(C(=O)NNc2c3c(nc4ccccc24)CCCC3)cc(OC)c1OC"
parameter = "EC50"
observed_result = "< 50 µM"

[[record]]
structure = "Cc1ccc2nc(-c3cccs3)cc(C(=O)NCCCN3CCN(C)CC3)c2c1"
parameter = "EC50"
observed_result = "> 150 µM"

[[record]]
structure = "CN(NC(=O)c1ccncc1)c1c2ccccc2nc2ccccc12"
parameter = "EC50"
observed_result = "< 50 µM"

[[record]]
structure = "CC(C)c1cc(NC(=O)c2c3ccccc3nc3ccccc23)n(-c2ccccc2)n1"
parameter = "EC50"
observed_result = "< 50 µM"

[[record]]
structure = "O=C(NNc1cc(-c2ccccc2)nc2ccccc12)c1ccccn1"
parameter = "EC50"
observed_result = "< 50 µM"

[[record]]
structure = "Cc1ccc2nc(-c3cccs3)cc(C(=O)NCCCN3CCOCC3)c2c1"
parameter = "EC50"
observed_result = "> 150 µM"

[[record]]
structure = "COc1cc(-c2nnc(-c3c4ccccc4nc4ccccc34)o2)cc(OC)c1OC"
parameter = "EC50"
observed_result = "< 50 µM"

[[record]]
structure = "Cc1ccc2nc(-c3ccco3)cc(C(=O)N3CCN(C)CC3)c2c1"
parameter = "EC50"
observed_result = "> 150 µM"

[[record]]
structure = "Cc1ccc2nc(-c3ccco3)cc(C(=O)N3CCOCC3)c2c1"
parameter = "EC50"
observed_result = "> 150 µM"


From: patent US20090069301A1
